- Test system: MDA-MB-468 breast
- protocol.notes: NCI-60 one-dose screen, 48 h
- setup.conditions: 10 µM unless noted
This is part of a sample that, as a whole, favours compounds with a hit. Of some 83,000 tested, about 20% had one in any assay. Active and inactive are the calls of the source. How the source made its calls: active means growth percent below 10; inactive means the rest.
Reply using exactly one outcome from 1 (active), -1 (inactive)

Look over these answered cases.
Cc1cccc(NC(=O)CN2CCN(c3ncnc4c3cnn4-c3ccccc3)CC2)c1 :: -1
COc1ccc(C(=O)/C=C/c2c(F)cccc2Cl)cc1S(N)(=O)=O :: 1
CC(=O)Nc1ccc(-c2nc3cc(-c4ccc(O)cc4)ccc3n2C)cc1 :: -1
O=C1CCCc2cc(OCC(=O)N3CCCCC3)ccc2N1 :: -1
COc1cc2c(c(OC)c1OC)C(=O)CC(c1cccc(NC(=O)c3cccc([N+](=O)[O-])c3)c1)O2 (centres undefined) :: 1
C#CCOc1cc(N(CC)CC)ccc1C(C(=O)NC(C)(C)C)N(C(=O)C1CCc2cc(F)ccc2O1)c1ccccc1F (centres undefined) :: -1
COCOc1ccc2c(=O)c(C)c(C(=O)N[C@@H](Cc3ccccc3)C(O)C(=O)NCCc3ccc(OC)cc3)oc2c1 (some centres undefined) :: -1
CC12CC[C@@H]3[C@]4(C)COC(c5cn[nH]c5-c5cccc(Cl)c5)O[C@@H]4CC[C@@]3(C)[C@@H]1CC(C1=CCOC1=O)O2 (some centres undefined) :: 1

Please state the recorded outcome for this compound: Cc1cc2nc3c([nH]c2cc1C)c1ccc(=O)cc1n3CCN(C)C
-1

* * *

- Test system: HCT-15 colon
- protocol.notes: NCI-60 one-dose screen, 48 h (100 = growth as untreated, 0 = no growth, -100 = all killed)
- setup.conditions: 10 µM unless noted
About 83,000 compounds went through this panel and 20% of them were active in at least one assay; those are over-represented in the sample as a whole.
reported.property: growth (%)
Report the value in % with no unit label.

Please review the entries below; each comes with its answer.
O=C(Cn1c(/C=C/c2ccccc2)nc2ccccc2c1=O)Nc1ccc(Cl)cc1 :: 78
COc1ccc(C2=NN(C(C)=O)C(c3ccc(OCc4ccc(Cl)cc4)c(OC)c3)C2)cc1OC (centres undefined) :: 27.9
Cn1cc(-c2cc(N)n3nc(-c4c[nH]c5ccccc45)cc3n2)c2cc(Br)cnc21 :: -58.5
Cc1ccccc1[C@H]1C(C(=O)c2ccc(Cl)cc2)C2(N[C@@H]1c1ccccc1)C(=O)Nc1ccccc12 (some centres undefined) :: -14
COc1ccc(-c2ccnc(SCc3cc4ccccc4[nH]c3=O)n2)cc1OC :: 39.5

What does the data say about its growth? Entry: COc1ccc(C(=O)/C=C/c2cccnc2)cc1S(N)(=O)=O
4.61

What does the data say about its growth? Entry: C=C1CC[C@@H]2[C@]3(C)COC(c4cn[nH]c4-c4ccc(OC)cc4)O[C@@H]3CC[C@@]2(C)[C@@H]1C/C=C1/C(=O)OCC1O (some centres undefined)
-35.3

What does the data say about its growth? Entry: COc1cc(/C=C/C(=O)c2nnn(-c3ccc(Cl)cc3)c2C)cc(OC)c1OC
12.4

What does the data say about its growth? Entry: O=C1/C(=C/C2=Cc3ccccc3OC2)SC(=S)N1c1ccccc1F
107

* * *

- Test system: EKVX NSCLC
- protocol.notes: NCI-60 one-dose screen, 48 h (100 = growth as untreated, 0 = no growth, -100 = all killed)
- setup.conditions: 10 µM unless noted
Compounds without any hit were thinned out: in the full panel of roughly 83,000, 20% have a hit.
reported.property: growth (%)
Report the value in % with no unit label.

CC(=O)Oc1ccc(/C=C/C(=O)N[C@@H](Cc2ccccc2)C(O)C(=O)NCc2ccccc2)cc1OC(C)=O (stereo partly drawn) :: 90.6
CC1(C)CC[C@]2(C(=O)O)CC[C@]3(C)C(=CCC4[C@@]5(C)C[C@@H](O)[C@@H]6OC(c7ccco7)OC[C@@]6(C)C5CC[C@]43C)C2C1 (stereo partly drawn) :: 22.8
NC(=S)Nc1cccc(NC(N)=S)c1 :: 101
N/C(=N\c1nc2ccccc2s1)NC(=O)Nc1ccc(Cl)cc1Cl :: -42.5

Lookup: growth / EKVX NSCLC / C=C1CC[C@@H]2[C@]3(C)COC(c4cn[nH]c4-c4ccc(Br)cc4)O[C@@H]3CC[C@@]2(C)[C@@H]1C/C=C1/C(=O)OCC1O (stereo partly drawn)
-51

Lookup: growth / EKVX NSCLC / COc1ccc(-c2ccnc(SCc3cc4ccccc4[nH]c3=O)n2)cc1OC
-16.6

Lookup: growth / EKVX NSCLC / Cc1ccc2c(N)c(C(=O)Nc3ccc(-c4ccccc4)cc3)sc2n1
22.7

Lookup: growth / EKVX NSCLC / COc1cc2oc(-c3cccc(C(=O)Nc4ccc(Cl)cc4)c3)cc(=O)c2c(OCCNC(=O)[C@H](CO)NC(=O)OC(C)(C)C)c1OC
24.1
